From: patent US20230355720A1

biological target: human GLP-1 receptor (human, UniProt P43220 24-463); experiment: cell-based or functional assay
Bridge positions count the residues as written; N and C are the ends. Square brackets hold non-standard residues; d marks the D form. Ends that are not written are not given here. * marks the point of attachment. Acetyl(2-(4-imidazolyl)) = O=C(Cc1c[nH]cn1)*; Aib = CC(C)(N)C(=O)O
Experimental readout: In vitro activity (%) compared with native peptide, vs GLP-1

# Binder, Result value
measured = [
    ("H[Aib]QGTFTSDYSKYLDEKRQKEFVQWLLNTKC (bridge 16-20) [triple agonist of SEQ ID NO: 58]", "39.1%"),
    ("{Acetyl(2-(4-imidazolyl))}-[Aib]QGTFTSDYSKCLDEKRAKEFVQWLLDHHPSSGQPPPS (bridge 15-19) [triple agonist of SEQ ID NO: 74]", "12.9%"),
    ("Y[Aib]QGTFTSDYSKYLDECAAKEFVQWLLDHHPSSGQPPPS (bridge 16-20) [triple agonist of SEQ ID NO: 64]", "64.6%"),
    ("[Acetyl(2-(4-imidazolyl))]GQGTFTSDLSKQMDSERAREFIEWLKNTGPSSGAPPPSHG (not fully specified) [triple agonist of SEQ ID NO: 18]", "< 0.1%"),
    ("[Acetyl(2-(4-imidazolyl))][Aib]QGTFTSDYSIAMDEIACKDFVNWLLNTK (bridge 16-20; not fully specified) [triple agonist of SEQ ID NO: 61]", "59.8%"),
    ("H[Aib]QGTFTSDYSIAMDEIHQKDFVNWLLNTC (bridge 16-20) [triple agonist of SEQ ID NO: 57]", "11.7%"),
    ("H[Aib]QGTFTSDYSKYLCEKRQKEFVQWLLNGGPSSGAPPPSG (bridge 16-20) [triple agonist of SEQ ID NO: 36]", "37.4%"),
    ("H[Aib]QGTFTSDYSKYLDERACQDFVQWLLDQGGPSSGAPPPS (not fully specified) [triple agonist of SEQ ID NO: 27]", "83.1%"),
]
